Where do these numbers come from? They come from paper PMC11938010.

Tested on: Streptococcus pneumoniae (DSM20566)
protocol.description: In vitro antibacterial activity (MIC), S. pneumoniae
Type: cell-based
condition.details: Streptococcus pneumoniae, DSM20566; Table S2, with standard deviation; read-out: Sp MIC95
Measured MIC by item

compound: O=C(Nc1cccc(CNC2=NCCN2)c1)c1cc(-c2cc(Cl)ccc2O)[nH]n1
target.desc: Streptococcus pneumoniae (DSM20566)
limit.operator: =
MIC, µM: 48.2
//
compound: CC(C)(C)OC(=O)NCc1ccc(NC(=O)c2cc(-c3cc(Cl)ccc3O)[nH]n2)cc1C(F)(F)F [Compound 10B]
target.desc: Streptococcus pneumoniae (DSM20566)
limit.operator: >
MIC, µM: 50
//
compound: CC(C)(C)OC(=O)N1CCN(c2cc(NC(=O)c3cc(-c4cc(Cl)ccc4O)[nH]n3)cc(C(F)(F)F)c2)CC1 [Compound 11B]
target.desc: Streptococcus pneumoniae (DSM20566)
limit.operator: >
MIC, µM: 50
//
compound: CC(C)(C)OC(=O)N1CCN(Cc2ccc(NC(=O)c3cc(-c4cc(Cl)ccc4O)[nH]n3)cc2)CC1
target.desc: Streptococcus pneumoniae (DSM20566)
limit.operator: >
MIC, µM: 50
//
compound: O=C(Nc1cc(CNC2=NCCN2)cc(C(F)(F)F)c1)c1cc(-c2cc(Cl)ccc2O)[nH]n1
target.desc: Streptococcus pneumoniae (DSM20566)
limit.operator: =
MIC, µM: 15
//
compound: O=C(Nc1cccc(F)c1)c1cc(-c2cc(Cl)ccc2O)[nH]n1
target.desc: Streptococcus pneumoniae (DSM20566)
limit.operator: >
MIC, µM: 50
//
compound: NCc1cc(NC(=O)c2cc(-c3cc(Cl)ccc3O)[nH]n2)cc(C(F)(F)F)c1
target.desc: Streptococcus pneumoniae (DSM20566)
limit.operator: =
MIC, µM: 10.8
//
compound: CC(C)(C)OC(=O)N1CCN=C1NCc1cccc(NC(=O)c2cc(-c3cc(Cl)ccc3O)[nH]n2)c1
target.desc: Streptococcus pneumoniae (DSM20566)
limit.operator: =
MIC, µM: 31
//
compound: N=C(N)N1CCN(C(=O)c2cc(-c3cc(Cl)ccc3O)[nH]n2)CC1 [Compound 14G]
target.desc: Streptococcus pneumoniae (DSM20566)
limit.operator: >
MIC, µM: 50
//
compound: N=C(N)N1CCN(c2cccc(NC(=O)c3cc(-c4cc(Cl)ccc4O)[nH]n3)c2)CC1
target.desc: Streptococcus pneumoniae (DSM20566)
limit.operator: =
MIC, µM: 48
//
compound: CC(C)(C)OC(=O)NCc1cc(NC(=O)c2cc(-c3cc(Cl)ccc3O)[nH]n2)cc(C(F)(F)F)c1
target.desc: Streptococcus pneumoniae (DSM20566)
limit.operator: =
MIC, µM: 30
//
compound: O=C(c1cc(-c2cc(Cl)ccc2O)[nH]n1)N1CCOCC1
target.desc: Streptococcus pneumoniae (DSM20566)
limit.operator: >
MIC, µM: 50
//
compound: CC(C)(C)OC(=O)N1CCN(Cc2cccc(NC(=O)c3cc(-c4cc(Cl)ccc4O)[nH]n3)c2)CC1
target.desc: Streptococcus pneumoniae (DSM20566)
limit.operator: >
MIC, µM: 50
//
compound: N=C(N)N1CCN(c2ccc(NC(=O)c3cc(-c4cc(Cl)ccc4O)[nH]n3)cc2)CC1
target.desc: Streptococcus pneumoniae (DSM20566)
limit.operator: =
MIC, µM: 25
//
compound: CC(C)(C)OC(=O)N1CCN(c2ccc(NC(=O)c3cc(-c4cc(Cl)ccc4O)[nH]n3)cc2)CC1
target.desc: Streptococcus pneumoniae (DSM20566)
limit.operator: >
MIC, µM: 50
//
compound: O=C(Nc1ccc(CN2CCNCC2)cc1)c1cc(-c2cc(Cl)ccc2O)[nH]n1
target.desc: Streptococcus pneumoniae (DSM20566)
limit.operator: =
MIC, µM: 40
